valueKind: IC50 (nM)
Answer in nM, number only, no unit symbol.

Give IC50 only, for Cc1csc(-c2nnc(Nc3ccc(Oc4ncccc4-c4ccnc(N)n4)cc3)c3ccccc23)c1 , using MAPK14 (human) data. 53

----------
# experimentalTarget: EGFR (human) (UniProt P00533)
# Sequence (P00533 whole entry, looked up): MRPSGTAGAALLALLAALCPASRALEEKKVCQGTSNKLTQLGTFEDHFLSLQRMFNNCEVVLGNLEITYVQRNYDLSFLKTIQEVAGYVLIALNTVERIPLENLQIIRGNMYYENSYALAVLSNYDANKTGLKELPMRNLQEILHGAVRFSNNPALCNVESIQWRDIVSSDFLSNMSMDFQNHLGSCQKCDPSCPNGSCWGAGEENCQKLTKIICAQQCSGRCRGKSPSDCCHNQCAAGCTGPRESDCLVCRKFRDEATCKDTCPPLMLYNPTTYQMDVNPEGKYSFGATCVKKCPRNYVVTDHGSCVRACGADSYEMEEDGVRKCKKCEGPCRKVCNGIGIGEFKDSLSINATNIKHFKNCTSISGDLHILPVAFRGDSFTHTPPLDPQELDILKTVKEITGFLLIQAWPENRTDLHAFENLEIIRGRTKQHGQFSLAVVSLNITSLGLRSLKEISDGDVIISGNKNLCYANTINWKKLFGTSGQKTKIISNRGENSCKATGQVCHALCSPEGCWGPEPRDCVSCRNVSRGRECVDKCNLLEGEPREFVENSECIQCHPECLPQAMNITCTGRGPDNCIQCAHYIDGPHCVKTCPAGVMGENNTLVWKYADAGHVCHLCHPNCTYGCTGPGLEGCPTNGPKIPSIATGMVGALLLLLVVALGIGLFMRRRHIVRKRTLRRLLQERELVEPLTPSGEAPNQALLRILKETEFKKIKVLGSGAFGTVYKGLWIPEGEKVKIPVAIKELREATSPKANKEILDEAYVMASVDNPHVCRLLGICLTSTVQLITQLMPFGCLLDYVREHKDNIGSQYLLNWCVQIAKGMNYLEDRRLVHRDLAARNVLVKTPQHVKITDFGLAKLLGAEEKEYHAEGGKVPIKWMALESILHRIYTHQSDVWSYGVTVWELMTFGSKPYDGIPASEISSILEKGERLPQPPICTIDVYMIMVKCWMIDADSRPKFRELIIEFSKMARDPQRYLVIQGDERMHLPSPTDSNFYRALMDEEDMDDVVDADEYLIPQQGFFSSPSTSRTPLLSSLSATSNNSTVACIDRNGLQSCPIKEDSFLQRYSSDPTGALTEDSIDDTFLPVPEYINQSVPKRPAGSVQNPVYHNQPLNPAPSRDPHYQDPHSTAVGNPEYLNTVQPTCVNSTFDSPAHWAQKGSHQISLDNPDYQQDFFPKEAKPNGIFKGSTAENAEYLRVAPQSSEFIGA
pIC50: −log10 of the molar value.
valueKind: pIC50

Please supply the value of reported pIC50 for the item O=C(Nc1ccc(OC(F)(F)F)cc1)c1sccc1NCc1ccnc2ccccc12 < 5.00

Value source: the Kinase Knowledgebase extract (Sharma et al. 2016)
